- protocol text: activity coefficient (dimensionless); of the first substance listed, at infinite dilution; xn = mol fraction of the nth substance listed
- condition description: 333.26 K; 101 kPa; Liquid; Chromatography; x1 = 0
activity coefficient: recorded values
Respond using a number only.

ClC=C(Cl)Cl [trichloroethene] + CCCCCCCCCCCCCC(=O)O = 0.842
CCCO [propan-1-ol] + CCCCCCCCCCCCCC(=O)O = 1.52
CCCCO [butan-1-ol] + CCCCCCCCCCCC(=O)O = 1.54
CCc1ccccc1 [ethylbenzene] + CCCCCCCCCC(=O)O = 1.28
CCOC(C)=O [ethyl acetate] + CCCCCCCCCCCCCC(=O)O = 1.19
CC(C)=O [acetone] + CCCCCCCCCC(=O)O = 1.46
C=CCCCC [hex-1-ene] + CCCCCCCCCC(=O)O = 1.5
Clc1ccccc1 [chlorobenzene] + CCCCCCCCCCCC(=O)O = 1.08

Input: // query activity coefficient value for entry CCCO [propan-1-ol] + CCCCCCCCCC(=O)O
Output: 1.57

Input: For the molecule shown here, CCO [ethanol] + CCCCCCCCCCCCCC(=O)O , give the reported activity coefficient.
Output: 1.67

Input: Field request: activity coefficient | item: CCO [ethanol] + CCCCCCCCCC(=O)O
Output: 1.73

----------
- protocol text: activity coefficient (dimensionless); of the first substance listed, at infinite dilution; xn = mol fraction of the nth substance listed
- condition description: 353.3 K; 101 kPa; Liquid; Chromatography; x1 = 0
In this section, each of the compounds is paired with its reported activity coefficient.

C=CCCCC [hex-1-ene] + CCCCCCCCCCCCCC(=O)O = 1.18
C1CCCCC1 [cyclohexane] + CCCCCCCCCCCCCC(=O)O = 1.02
CCc1ccccc1 [ethylbenzene] + CCCCCCCCCCCC(=O)O = 1.18
CO [methanol] + CCCCCCCCCC(=O)O = 1.57
CCCCCCC [heptane] + CCCCCCCCCCCC(=O)O = 1.62

Input: Sample ClC(Cl)Cl [trichloromethane] + CCCCCCCCCCCCCC(=O)O — what was its activity coefficient?
Output: 0.727

----------
Property: activity coefficient; scope: individual compounds
- protocol text: activity coefficient (dimensionless); of the first substance listed, at infinite dilution; xn = mol fraction of the nth substance listed
- condition description: 314.24 K; 101 kPa; Liquid; Chromatography; x1 = 0
Quick one: just the number, no unit, thanks!

Look over these answered cases.
CCO [ethanol] + CCCCCCCCCC(=O)O = 2.07
Clc1ccccc1 [chlorobenzene] + CCCCCCCCCCCC(=O)O = 1.12
CCCO [propan-1-ol] + CCCCCCCCCCCCCC(=O)O = 1.65
Cc1ccccc1 [toluene] + CCCCCCCCCCCC(=O)O = 1.08
ClC(Cl)Cl [trichloromethane] + CCCCCCCCCCCCCC(=O)O = 0.743

Input: Query (compound): ClC=C(Cl)Cl [trichloroethene] + CCCCCCCCCCCC(=O)O ; field requested: activity coefficient
Output: 0.967

Input: Query (compound): ClC=C(Cl)Cl [trichloroethene] + CCCCCCCCCC(=O)O ; field requested: activity coefficient
Output: 1.04

Input: Record request: activity coefficient value, item COc1ccccc1 [anisole] + CCCCCCCCCCCCCC(=O)O
Output: 1.3

----------
- protocol text: activity coefficient (dimensionless); of the first substance listed, at infinite dilution; xn = mol fraction of the nth substance listed
- condition description: 340.19 K; 101 kPa; Liquid; Chromatography; x1 = 0
recorded endpoint: activity coefficient
Respond numerically, and do not add a unit to the figure.

The cases that follow already have their activity coefficient on record.
CCC(C)O (stereo not given) [butan-2-ol] + CCCCCCCCCCCCCCCC(=O)O = 1.26
CCCO [propan-1-ol] + CCCCCCCCCCCCCCCC(=O)O = 1.74
C1CCCCC1 [cyclohexane] + CCCCCCCCCCCCCCCC(=O)O = 1.03
CCCCCC [hexane] + CCCCCCCCCCCCCCCC(=O)O = 1.29
CCCCO [butan-1-ol] + CCCCCCCCCCCCCCCC(=O)O = 1.65

Input: Sample ClCCCl [1,2-dichloroethane] + CCCCCCCCCCCCCCCC(=O)O — what was its activity coefficient?
Output: 1.22

----------
- protocol text: activity coefficient (dimensionless); of the first substance listed, at infinite dilution; xn = mol fraction of the nth substance listed
- condition description: 333.26 K; 101 kPa; Liquid; Chromatography; x1 = 0
recorded endpoint: activity coefficient
Write the number on its own, no unit after it.

Take a look at these entries with their results.
CCC(C)O (stereo unspecified) [butan-2-ol] + CCCCCCCCCC(=O)O = 1.17
CCCO [propan-1-ol] + CCCCCCCCCCCC(=O)O = 1.57
CC(C)O [propan-2-ol] + CCCCCCCCCCCCCC(=O)O = 1.3
CC(C)=O [acetone] + CCCCCCCCCCCC(=O)O = 1.45
ClCCCl [1,2-dichloroethane] + CCCCCCCCCC(=O)O = 1.35
CC(C)O [propan-2-ol] + CCCCCCCCCCCC(=O)O = 1.33
CCC(C)O (stereo unspecified) [butan-2-ol] + CCCCCCCCCCCCCC(=O)O = 1.12
CCCCCCC [heptane] + CCCCCCCCCCCC(=O)O = 1.67
ClC(Cl)Cl [trichloromethane] + CCCCCCCCCCCC(=O)O = 0.832
CO [methanol] + CCCCCCCCCCCCCC(=O)O = 1.73

// next entry
Input: Consider the molecule shown here: CO [methanol] + CCCCCCCCCCCC(=O)O What is its recorded activity coefficient?
Output: 1.67

----------
- protocol text: activity coefficient (dimensionless); of the first substance listed, at infinite dilution; xn = mol fraction of the nth substance listed
- condition description: 358.33 K; 101 kPa; Liquid; Chromatography; x1 = 0
recorded endpoint: activity coefficient
Reply with just the number.

Input: Any idea what activity coefficient was measured for CC(C)CC(C)(C)C [2,2,4-trimethylpentane] + CCCCCCCCCCCCCC(=O)O ?
Output: 1.45

Input: Request the reported activity coefficient associated with Cc1ccccc1 [toluene] + CCCCCCCCCCCCCC(=O)O
Output: 0.93

Input: Requested read-out: activity coefficient. Entry: CCc1ccccc1 [ethylbenzene] + CCCCCCCCCCCCCC(=O)O
Output: 1.04

Input: Return reported activity coefficient; argument: CCCCCC [hexane] + CCCCCCCCCCCCCC(=O)O
Output: 1.33

----------
- protocol text: activity coefficient (dimensionless); of the first substance listed, at infinite dilution; xn = mol fraction of the nth substance listed
- condition description: 333.26 K; 101 kPa; Liquid; Chromatography; x1 = 0
recorded endpoint: activity coefficient
No unit in the answer, please; the number alone is enough.

Look over these answered cases.
CC(C)CC(C)(C)C [2,2,4-trimethylpentane] + CCCCCCCCCC(=O)O = 1.91
C=CCCCC [hex-1-ene] + CCCCCCCCCCCCCC(=O)O = 1.22
ClCCCl [1,2-dichloroethane] + CCCCCCCCCCCC(=O)O = 1.3

Input: Return reported activity coefficient; argument: COc1ccccc1 [anisole] + CCCCCCCCCCCC(=O)O
Output: 1.37

Input: Record request: activity coefficient value, item CCc1ccccc1 [ethylbenzene] + CCCCCCCCCCCC(=O)O
Output: 1.2

Input: I would be grateful if you could share the reported activity coefficient for ClCc1ccccc1 [(chloromethyl)benzene] + CCCCCCCCCCCCCC(=O)O .
Output: 1.61

----------
- protocol text: activity coefficient (dimensionless); of the first substance listed, at infinite dilution; xn = mol fraction of the nth substance listed
- condition description: 348.01 K; 101 kPa; Liquid; Chromatography; x1 = 0
Labelling field: enter YES if recorded activity coefficient is less than 1. Enter NO if it equals or exceeds that cut-off.

Input: Lab note: activity coefficient threshold 1. Does this compound come in strictly under it? CCO [ethanol] + CCCCCCCCCCCCCCCC(=O)O
Output: NO

Input: Field: below-cutoff. Rule: recorded activity coefficient strictly less than 1. Subject: CCCCO [butan-1-ol] + CCCCCCCCCCCCCCCC(=O)O
Output: NO

Input: Answer whether the compound ClC=C(Cl)Cl [trichloroethene] + CCCCCCCCCCCCCCCC(=O)O has activity coefficient strictly less than 1
Output: YES

Input: State whether 1 exceeds activity coefficient recorded for CCCCCC [hexane] + CCCCCCCCCCCCCCCC(=O)O .
Output: NO

Input: Report whether reported activity coefficient is lower than 1 (strictly) for C=CCCCC [hex-1-ene] + CCCCCCCCCCCCCCCC(=O)O
Output: NO

Input: Does CCCO [propan-1-ol] + CCCCCCCCCCCCCCCC(=O)O have activity coefficient strictly under 1?
Output: NO

Input: Below 1 on activity coefficient? Entry CCCCCCC [heptane] + CCCCCCCCCCCCCCCC(=O)O
Output: NO

Input: Answer whether the compound Clc1ccccc1 [chlorobenzene] + CCCCCCCCCCCCCCCC(=O)O has activity coefficient strictly less than 1
Output: YES

Input: API: query returns whether the compound falls strictly under 1 in activity coefficient. Query: Cc1ccccc1 [toluene] + CCCCCCCCCCCCCCCC(=O)O
Output: YES

Input: Determine if ClC(Cl)Cl [trichloromethane] + CCCCCCCCCCCCCCCC(=O)O shows activity coefficient strictly lower than 1.
Output: YES

Values compiled from the NIST ThermoML archive (doi:10.1016/j.jct.2012.06.009).
